system: Mast/stem cell growth factor receptor Kit (Homo sapiens), P10721 [V560G]; details: at 0.1 µM
Sequence (P10721 whole entry V560G): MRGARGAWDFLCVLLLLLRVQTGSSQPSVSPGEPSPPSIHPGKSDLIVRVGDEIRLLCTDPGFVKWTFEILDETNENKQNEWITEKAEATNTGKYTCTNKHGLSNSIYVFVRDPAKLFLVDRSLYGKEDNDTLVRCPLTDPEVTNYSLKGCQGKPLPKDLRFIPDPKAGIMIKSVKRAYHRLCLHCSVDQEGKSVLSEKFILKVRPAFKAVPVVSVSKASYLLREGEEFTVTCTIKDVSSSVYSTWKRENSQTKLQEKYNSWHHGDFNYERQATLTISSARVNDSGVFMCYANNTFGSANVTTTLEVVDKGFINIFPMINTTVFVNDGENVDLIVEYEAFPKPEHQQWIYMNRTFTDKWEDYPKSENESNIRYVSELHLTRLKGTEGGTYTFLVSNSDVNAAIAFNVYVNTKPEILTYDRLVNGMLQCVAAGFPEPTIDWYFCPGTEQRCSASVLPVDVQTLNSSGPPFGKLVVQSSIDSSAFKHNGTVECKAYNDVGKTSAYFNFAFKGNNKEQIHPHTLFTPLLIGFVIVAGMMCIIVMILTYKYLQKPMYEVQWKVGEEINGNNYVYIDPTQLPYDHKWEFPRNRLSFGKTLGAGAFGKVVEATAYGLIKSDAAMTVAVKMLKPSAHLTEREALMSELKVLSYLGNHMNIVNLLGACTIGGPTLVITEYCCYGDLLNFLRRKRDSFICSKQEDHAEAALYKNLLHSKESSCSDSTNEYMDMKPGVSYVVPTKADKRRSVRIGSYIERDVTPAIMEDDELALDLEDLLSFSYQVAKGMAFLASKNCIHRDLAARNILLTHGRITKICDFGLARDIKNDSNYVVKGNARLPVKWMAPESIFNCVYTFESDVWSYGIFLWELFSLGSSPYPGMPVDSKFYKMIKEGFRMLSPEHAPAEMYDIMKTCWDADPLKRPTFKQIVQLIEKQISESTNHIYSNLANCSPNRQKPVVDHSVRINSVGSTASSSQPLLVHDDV

COMPOUND | SUBJECT_OF_TEST | UNIT_SPEC | inhibition
COc1cc(N2CCN(C(C)C)CC2)ccc1Nc1nc(Nc2ccc(F)cc2C(N)=O)c2cc[nH]c2n1 | Mast/stem cell growth factor receptor Kit (Homo sapiens), P10721 [V560G] | % | -1.89
COC(=O)c1sc(-n2cnc3cc(OC)c(OC)cc32)cc1OCc1ccccc1C(F)(F)F | Mast/stem cell growth factor receptor Kit (Homo sapiens), P10721 [V560G] | % | -0.04
COc1ccc(-c2cc(-c3c[nH]nc3-c3ccccn3)ccn2)cc1 | Mast/stem cell growth factor receptor Kit (Homo sapiens), P10721 [V560G] | % | -1.03
NC(=O)c1sc(-n2cnc3ccc(C(F)(F)F)cc32)cc1OCc1ccccc1Br | Mast/stem cell growth factor receptor Kit (Homo sapiens), P10721 [V560G] | % | -0.43
CC(=O)Nc1cccc(C#Cc2cncnc2Nc2ccc(OCc3cccc(F)c3)c(Cl)c2)c1 | Mast/stem cell growth factor receptor Kit (Homo sapiens), P10721 [V560G] | % | 2.26
CN(C)CCOc1ccc(-c2nc(-c3ccncc3)c(-c3ccc4c(c3)CC/C4=N\O)[nH]2)cc1 | Mast/stem cell growth factor receptor Kit (Homo sapiens), P10721 [V560G] | % | 1.4
Fc1ccc(-c2cc(-c3c[nH]nc3-c3ccccn3)ccn2)cc1 | Mast/stem cell growth factor receptor Kit (Homo sapiens), P10721 [V560G] | % | -3.44
Cc1ccc(O)cc1Nc1ccnc2cc(-c3ccccn3)ccc12 | Mast/stem cell growth factor receptor Kit (Homo sapiens), P10721 [V560G] | % | 3.25
CC(C)(CO)CNC(=O)c1ccc2c(c1)/C(=N/Nc1ccc(S(N)(=O)=O)cc1)C(=O)N2 | Mast/stem cell growth factor receptor Kit (Homo sapiens), P10721 [V560G] | % | -0.35
CC1=C(C(=O)Nc2cc(Cl)c3[nH]ncc3c2)C(c2ccc(C(F)(F)F)cc2)CC(=O)N1 (stereo not given) | Mast/stem cell growth factor receptor Kit (Homo sapiens), P10721 [V560G] | % | -1.27
CC(C)COC(=O)c1ccc2c(c1)/C(=C/Nc1ccc(S(N)(=O)=O)cc1)C(=O)N2 | Mast/stem cell growth factor receptor Kit (Homo sapiens), P10721 [V560G] | % | 2.21
CCNC(=O)O[C@H]1CN[C@H](C#Cc2cc3ncnc(Nc4ccc(OCc5cccc(F)c5)c(Cl)c4)c3s2)C1 | Mast/stem cell growth factor receptor Kit (Homo sapiens), P10721 [V560G] | % | 0.45
COc1ccc(-c2nn3ncccc3c2-c2ccnc(Nc3ccc4c(c3)OCCO4)n2)cc1 | Mast/stem cell growth factor receptor Kit (Homo sapiens), P10721 [V560G] | % | 9.03
CN1CCC(n2cnc(-c3ccc(F)cc3)c2-c2ccnc(Nc3ccccc3)n2)CC1 | Mast/stem cell growth factor receptor Kit (Homo sapiens), P10721 [V560G] | % | -1.35
Cc1cccc(Nc2ncc(-c3ccccc3)o2)c1 | Mast/stem cell growth factor receptor Kit (Homo sapiens), P10721 [V560G] | % | 6.79
CCCN1CCC(c2ccc(Nc3nc(Nc4cc(F)ccc4C(N)=O)c4cc[nH]c4n3)c(OC)c2)CC1 | Mast/stem cell growth factor receptor Kit (Homo sapiens), P10721 [V560G] | % | -2.53
c1ccc(COc2ccc(Nc3ncnc4ccc(-c5ccco5)cc34)cc2)cc1 | Mast/stem cell growth factor receptor Kit (Homo sapiens), P10721 [V560G] | % | 2.08
COc1cc2c(cc1Nc1nc(Nc3ccsc3C(N)=O)c3cc[nH]c3n1)N(C(=O)CN(C)C)CCC2(C)C | Mast/stem cell growth factor receptor Kit (Homo sapiens), P10721 [V560G] | % | 5.02
COc1cccc(-n2ncc3c(N/N=C/c4ccc(F)cc4)ncnc32)c1 | Mast/stem cell growth factor receptor Kit (Homo sapiens), P10721 [V560G] | % | -0.37
Fc1cccc(COc2ccc(Nc3ncnc4sc(-c5ccco5)cc34)cc2Cl)c1 | Mast/stem cell growth factor receptor Kit (Homo sapiens), P10721 [V560G] | % | -0.3
